# Tested on: NCI-H460
# TEST: NCI tumour cell line growth inhibition, 48 h
Active and inactive are the calls of the source. No stated cut-off is given here; in the data, active = GI50 up to about 1.1 µM and inactive = higher.
Outcome field: choose from 1 for active, -1 for inactive

Past entries and their recorded results:
>>> df
                                   molecule  assigned_label
0               Cc1ccc(C=C(C(=O)O)C(=O)O)o1              -1
1  COc1cc2c(cc1O)NC(=O)[C@@H]1C[C@@H](O)CN1C2=O              -1
2                   CCOC(=O)CN1CCS/C1=N/C#N              -1
3  c1ccc2/c3[nH]/c(c2c1)=N\c1ccc(cc1)-c1nc2ccc(cc2o1)/N=c1/[nH]/c(c2ccccc12)=N/c1ccc2nc(oc2c1)-c1ccc(cc1)\N=3              -1
4  CCNC(=O)C(C)C1CCC2(C)C=CC(=O)C(C)=C2C1O (stereo not drawn)              -1

-- ask Kindly provide the recorded test outcome for the following molecule: "COc1ccc2c(C(=O)O)cc3cc(OC)c(OC)cc3c2c1"
-- reply -1

-- ask Please answer likewise for "c1c[nH]c(CN2CCOCC2)n1"
-- reply -1

-- ask Field entry: CC1=CC(O)C(O)C2(C)C1CC1OC(=O)C(O)C3C(C)C(O)C4(O)OCC13C42 (stereo not drawn)
-- reply -1

-- ask "c1cc(C[S+]2CCCC2)oc1C[S+]1CCCC1" , same question.
-- reply -1

-- ask What about this molecule? "COc1ccc(/C=C2\C[C@H]3[C@@H]4CC=C5C[C@@H](OC(C)=O)CC[C@]5(C)[C@H]4CC[C@]3(C)\C2=N\O)cc1OC"
-- reply -1

-- ask Lookup "c1ccc2[nH]c3nc4ccccc4c-3cc2c1"
-- reply 1

-- ask Again, but for FC1OC2OC1C(OCc1ccccc1)C(OCc1ccccc1)C2OCc1ccccc1 (stereo not drawn)
-- reply -1

-- ask What do you have for "O=C1OC(c2ccccc2)=N/C1=C\c1cccc2ccccc12" ?
-- reply -1

====

# Tested on: SF-295
# TEST: NCI tumour cell line growth inhibition, 48 h
Active and inactive are the calls of the source. Rule as the data show it: active = GI50 up to about 1.1 µM and inactive = higher.
MEASURED QUANTITY: GI50

In the examples that follow, each entry is paired with its recorded GI50.
                                   molecule  measured_quantity             observed
0     CCc1c(O)nc(Nc2nc3ccccc3[nH]2)[nH]c1=O               GI50  > 100 µM (inactive)
1  C/C(=N\N(C)C)C(CN(C)C)C(c1ccccc1)c1c(O)c2ccccc2oc1=O (stereo not given)               GI50  > 100 µM (inactive)
2  NC(=O)C1C(=O)Oc2cccnc21 (stereo not given)               GI50  > 100 µM (inactive)
3  Cc1ccc(C(=O)O/N=C2/CCCCC2CN(C)C)cc1 (stereo not given)               GI50  > 100 µM (inactive)

-- ask Hello, I am looking for reported GI50 with SF-295 for "CC(=O)[C@@]1(O)CC[C@H]2[C@@H]3C[C@H](C)C4=CC(=O)C=C[C@]4(C)[C@@]3(F)[C@@H](O)C[C@@]21C" . Could you help?
-- reply > 100 µM (inactive)

-- ask What would you report for "C=CCn1c(=O)c(C(=O)NC(=O)OCC)cn(C2CCCCC2)c1=O" ?
-- reply > 100 µM (inactive)

====

# Test system: SNB-75
# TEST: NCI tumour cell line growth inhibition, 48 h
Activity calls are given as the source filed them. Rule as the data show it: active = GI50 up to about 1.1 µM and inactive = higher. Peptide text beside a SMILES is read from it. * marks the point of attachment. Cbz = O=C(OCc1ccccc1)*
The reply should name one outcome from active, inactive

Here's what some known entries look like.
COMPOUND	ASSIGNED LABEL
COc1ccc2c(c1)[n+]([O-])c(C(N)=O)c(N)[n+]2[O-]	inactive
COC(=O)C(Cc1c[nH]c2ccccc12)NC1=Nc2ccncc2S(=O)(=O)N1c1cccc(OC(C)C)c1 (stereo not given)	inactive
NCC(=O)C(O)C(O)C(O)CO (stereo not given)	inactive
CCCCn1c2ccccc2c2ccc3c(c21)C(=O)C=CC3=O	active
NC(=O)C1C(=O)Oc2cccnc21 (stereo not given)	inactive
C=C(C)C(=O)OC1C[C@H](COC(C)=O)C2CC=C(C)C2C2OC(=O)C(=C)[C@H]12 (stereo not given in full)	inactive
COc1cc2c(cc1OC)C1C(=O)c3c(O)cc4c(c3OC1CO2)C=CC(C)(C)O4 (stereo not given)	inactive
Clc1ccc(CCNC2(c3cc4ccccc4s3)CCCCC2)cc1Cl	inactive

-- ask Per the assay record, what outcome was assigned to "CSc1nc2ccccc2c(=O)n1-c1cccc(C)c1" ?
-- reply inactive

-- ask Please answer likewise for "CN(C)C(=O)/N=C1\SC(=N\c2ccccc2)/C(=N/c2ccccc2)N1c1ccc([N+](=O)[O-])cc1"
-- reply inactive

-- ask Follow-up entry: "Cc1c(C)c(S(=O)(=O)N(CCCCCN)OCCCN)c(C)c2c1OC(C)(C)CC2"
-- reply inactive

-- ask Here is the next compound: "COc1cccc2c1N[S@](=O)S2"
-- reply inactive

-- ask COC1/C(=C\C(C)=O)c2ccccc2N1C(C)=O (stereo not given) , same question.
-- reply inactive

-- ask // repeat for "NNC(=O)CCSc1ccccc1" and report
-- reply inactive

-- ask Likewise for CCOC(=O)C(C)NC(=O)C(C)NC(=O)C(C)NC(=O)C(C)NC(=O)C(C)NC(=O)C(C)NC(=O)C(C)NC(=O)OCc1ccccc1 (stereo not given) (Cbz-AAAAAAA-OEt; configuration not given here) ?
-- reply inactive

-- ask Try this compound too: "N#Cc1c(NN)nc(NN)c(C#N)c1-c1ccccc1"
-- reply inactive

-- ask Same read-out for "CCCC(=O)NC(Nc1ccc(F)cc1)(C(F)(F)F)C(F)(F)F" ?
-- reply inactive

-- ask Follow-up item: "CO[C@H]1[C@@H](O)[C@@H](O)O[C@@H](O[C@H]2CC[C@@]3(C)[C@H](CC[C@@H]4[C@@H]3[C@H](O)C[C@]3(C)[C@@H](C5=CC(=O)OC5)CC[C@]43O)C2)[C@@H]1O"
-- reply active

-- ask Would you kindly repeat that for Cc1cc(C)c(P2C(=C(O[Si](C(C)C)(C(C)C)C(C)C)C(C)(C)C)C2(c2ccccc2)c2ccccc2)c(C)c1 (stereo not given) ?
-- reply inactive

-- ask // same read-out, input: "CC(C)CCn1c(=O)c2c(=O)[nH][nH]c2c2ccccc21"
-- reply inactive

-- ask Let us now turn to "CC(=O)Oc1c(C)n(CCCl)ccc1=O"
-- reply inactive

-- ask What about CC(=O)NC(CS/N=N/c1[nH]cnc1C(N)=O)C(=O)O (stereo not given) ?
-- reply inactive

-- ask Quick one: "Cc1cc2ncc3c(=O)n(NS(=O)(=O)c4ccc(N)cc4)ccc3n2n1"
-- reply inactive

-- ask Further, for Cc1ccc2c(c1)C1(C)OC(CC(N)C1O)O2 (stereo not given) ?
-- reply inactive

-- ask Same question for "COc1ccc2c(c1)c1c(n2CCN2CCCCC2)-c2cccc(OC)c2CC1" please.
-- reply inactive

-- ask Thanks! And "COc1ccccc1N/C(SCc1ccccc1)=C(/C(Cl)=C(Cl)Cl)[N+](=O)[O-]" ?
-- reply inactive

-- ask Now give it for "c1ccc2c(CNCCCN3CCN(CCCNCc4cccc5ccccc45)CC3)cccc2c1" too.
-- reply inactive

-- ask Another: "O=c1c2cc([N+](=O)[O-])ccc2n2n1Cc1ccccc1C2"
-- reply inactive

-- ask Also CCCCOP(=O)(OCCCC)C(NS(=O)(=O)c1ccccc1)(C(=O)OCC)C(F)(F)F (stereo not given) ?
-- reply inactive

-- ask Clc1ccc(C2SCc3nc4ccccc4n32)cc1 (stereo not given) , same question.
-- reply inactive

====

Let's look at some compounds and their measured GI50.
# Test system: A498
# TEST: NCI tumour cell line growth inhibition, 48 h
The source made the active and inactive calls. Rule as the data show it: active = GI50 up to about 1.1 µM and inactive = higher.

-- ask Which GI50 is reported with A498 for this entry: "CC(C)(C)[Si](C)(C)OCCCC#CCO" ?
-- reply > 100 µM (inactive)

-- ask Another compound: "CC(C)(C)C(=O)O[C@H]1C=C[C@@H](O)[C@@H]2[C@H]1[C@@H]1C=C[C@H]2C1"
-- reply 20.3 µM (inactive)

-- ask Would you mind doing CCCCOP(=O)(OCCCC)C(NS(=O)(=O)c1ccccc1)(C(=O)OCC)C(F)(F)F (stereo not drawn) as well?
-- reply 34.5 µM (inactive)

====

# Tested on: Malme-3M
# TEST: NCI tumour cell line growth inhibition, 48 h
The source made the active and inactive calls. Rule as the data show it: active = GI50 up to about 1.1 µM and inactive = higher.
The reader will find reported GI50 values listed item by item below.

Here is how some compounds turned out for GI50.
                                   compound             observed
0  COc1cc2c(oc(=O)c3cc4cc([Si](C)(C)C)oc4c(OC)c32)c2cccc(O)c12  > 100 µM (inactive)
1                 O=S(=O)(O)CS(=O)(=O)OCCCl  > 100 µM (inactive)
2       C[N+](C)(CCO)CCN1c2ccccc2Sc2ccccc21   > 10 µM (inactive)
3     COc1ccc(/C(Cl)=C/c2ccc(Cl)c(Cl)c2)cc1   20.9 µM (inactive)
4  C[C@@H](c1ccccc1)N1C[C@@H](c2ccc3c(c2)OCO3)[C@@H]2C(=O)CCC[C@@H]21   31.3 µM (inactive)

Now for another entry.
-- ask Look up GI50: "c1cc(C[S+]2CCCC2)oc1C[S+]1CCCC1"
-- reply > 100 µM (inactive)
